Literature-derived Ki for Adenosine receptor A2a (Homo sapiens) follows.
measuredQuantity: Ki (nM)

Here's what some known entries look like.
smilesData	systemName	readingUnit	Ki
CC(C)c1nc(-c2nccs2)c2sccc2n1	Adenosine receptor A2a (Homo sapiens)	nM	1.4
O=C(O)c1cnc(NCc2ccc(F)cc2)n2nc(-c3ccco3)nc12	Adenosine receptor A2a (Homo sapiens)	nM	6390

(a) Nc1ncnc2c1ncn2C1CCCC1
(b) O=C(Nc1ccc(-c2ccncc2F)c(-c2ccco2)n1)C1CC1
In: Of the pair a and b , name the member with the lesser recorded Ki. // output: label of the selected item
Out: b

###

pKi: −log10 of the molar value.
Literature-derived pKi for Adenosine receptor A2a (Homo sapiens, UniProt P29274) follows.

smilesData	pKi
COc1ccc(-c2nc3c4cn(C)nc4nc(NC(=O)c4ccccc4)n3n2)cc1	< 4.00
Cn1cc2c(nc(NC(=O)c3ccccc3)n3nc(-c4ccc(Br)cc4)nc23)n1	< 4.00
O=c1n(-c2ccccc2)nc2c(NC3CCCC3)nc3ncccc3n12	6.68

Moving on to another molecule below.
In: Identify measured pKi corresponding to Cc1cn2c(nc3c2c(=O)n(CCO)c(=O)n3Cc2ccccc2)[nH]1
Out: < 6.00

###

Literature-derived pKi for Adenosine receptor A2a (Homo sapiens, UniProt P29274) follows.
pKi: −log10 of the molar value.
measuredQuantity: pKi

Here's what some known entries look like.
compound	systemName	pKi
CN(C)c1nc(-c2ccc(S(N)(=O)=O)cc2)cn2c(=O)n(-c3ccccc3)nc12	Adenosine receptor A2a (Homo sapiens, UniProt P29274)	5.41
Nc1ncnc2c1ncn2C1CCC1	Adenosine receptor A2a (Homo sapiens, UniProt P29274)	5.32
O[C@@H]1[C@H](O)[C@@H]2C[C@@H]2[C@H]1n1cnc2c(NCc3cccc(Br)c3)nc(Cl)nc21	Adenosine receptor A2a (Homo sapiens, UniProt P29274)	5.80
CCCn1c(=O)c2[nH]c(-c3ccc(OCC(=O)Nc4ccccc4)cc3)c(Br)c2n(CCC)c1=O	Adenosine receptor A2a (Homo sapiens, UniProt P29274)	7.37

(I) COc1ccc(Cl)cc1Nc1nc(N)nc(-c2oc3ccccc3c2C)n1
(II) Nc1nc(-c2ccccc2)nc2cn(-c3ccccc3)nc12
In: Could you point out whether the larger pKi belongs to I or to II ? // output: label of the selected item
Out: I
(I: 7.49, II: 6.49)

(1) COc1cc(NC(=O)CC(C)(C)C)ccc1C(=O)Nc1nccs1
(2) Cn1c(=O)c2[nH]c(-c3ccc(OCC(=O)N4CCN(c5ccc(O)cc5)CC4)cc3)cc2n(C)c1=O
In: Of the pair 1 and 2 , name the member with the lesser recorded pKi. // output: label of the selected item
Out: 2
(2: 6.21, 1: 7.30)

(1) CCOC(=O)c1c(NC(=O)c2sc(Nc3ccc(C)cc3)nc2N(C)C)sc(C(=O)OC)c1C
(2) N#Cc1cnc(N)nc1-c1ccccc1
(3) CC(=O)Oc1cccc2cc(-c3ccsc3)c(=O)oc12
In: // sort entries: pKi, high to low Lab note: final answer is the ordered label list.
Out: 2, 3, 1
(2: 6.52, 3: 4.83, 1: 4.58)

(A) CC(=O)Nc1cc(N2CCCC2CO)nc(-n2nc(C)cc2C)n1 (single isomer, unassigned)
(B) O=c1[nH]c2nc(-c3cnn(Cc4cccc(F)c4)c3)[nH]c2c(=O)n1CC1CC1
(C) CCCn1c(=O)c2[nH]c(-c3cnn(CC4CC(=O)N(c5ccc(OC)cc5)C4)c3)nc2n(CC)c1=O (stereo unspecified)
In: Provide the items ranked by increasing pKi. Lab note: final answer is the ordered label list.
Out: C, B, A
(C: 6.31, B: 7.00, A: 7.59)

(I) CCC(=O)Nc1cc(N2CCC[C@@H]2COC)nc(-n2nc(C)cc2C)n1
(II) CC(C)Nc1nc(NC(=O)Cc2ccccc2)n2nc(-c3ccco3)nc2n1
In: Of the pair I and II , name the member with the lesser recorded pKi. // output: label of the selected item
Out: II

(1) Nc1nc(-c2cccs2)nc2cn(-c3ccccc3)nc12
(2) Nc1nc(-c2ccco2)c2cnn(CCCCCCC(=O)NO)c2n1
(3) Nc1nc(-c2ccco2)c2cnn(CCCCC(=O)NO)c2n1
In: Provide the items ranked by increasing pKi. Lab note: final answer is the ordered label list.
Out: 3, 2, 1

###

pKi: −log10 of the molar value.
Literature-derived pKi for Adenosine receptor A2a (Homo sapiens, UniProt P29274) follows.
measuredQuantity: pKi

smilesData	pKi
COc1ccc(CC(=O)Nc2nc3nn(CCC(C)C)cc3c3nc(-c4ccco4)nn23)cc1	8.71

(a) CCOC(=O)c1cnc(N)n2nc(-c3ccco3)nc12
(b) CCn1c(=O)c2nc(-c3cnn(Cc4cccc(F)c4)c3)[nH]c2n(CC)c1=O
In: Could you point out whether the larger pKi belongs to a or to b ? // output: label of the selected item
Out: a
(a: 8.48, b: 6.54)

###

Literature-derived Ki for Adenosine receptor A2a (Homo sapiens) follows.
measuredQuantity: Ki (nM)

(A) COC(=O)c1cccc(CSc2nc(N)c(C#N)c(-c3ccco3)c2C#N)c1
(B) Nc1nc(CCCc2ccccc2O)nc2cn(-c3ccccc3)nc12
(C) Nc1nc(-c2cccs2)c2ccccc2n1
In: // sort listed items: Ki descending Lab note: final answer is the ordered label list.
Out: C, B, A
(C: 171 nM, B: 102 nM, A: 68 nM)

###

Literature-derived Ki for Adenosine receptor A2a (Homo sapiens) follows.
measuredQuantity: Ki (nM)

compound	measuredQuantity	result
CC(=O)Nc1cc(-c2ccc3c(c2)OCO3)nc(-c2ccc3c(c2)OCO3)n1	Ki	3350
CCNC(=O)[C@H]1O[C@@H](n2cnc3c(NC(=O)Nc4ccc(S(N)(=O)=O)cc4)ncnc32)C(O)C1O (single isomer, unassigned)	Ki	95.2

(1) Cn1cc2c(nc(NCCCCCO)n3nc(-c4ccco4)nc23)n1
(2) CCCn1c(=O)c2c(cc(-c3ccc(N)cc3)n2O)n(CCC)c1=O
(3) CCCn1c(=O)c2[nH]c(-c3ccc(OCC(=O)Nc4ccc(-c5ccccc5)cc4)cc3)cc2n(CCC)c1=O
(4) CCCn1c(=O)c2nc([C@]34CC[C@](C(=O)NCCC(=O)OC)(CC3)CC4)[nH]c2n(CCC)c1=O
In: // sort entries: Ki, high to low Lab note: final answer is the ordered label list.
Out: 4, 2, 1, 3
(4: 1400 nM, 2: 240 nM, 1: 124 nM, 3: 69.2 nM)

###

Literature-derived Ki for UniProt:P29274 follows.
measuredQuantity: Ki (nM)

Here's what some known entries look like.
molecule	result
Cc1ccc(-c2nc(N)c3nn(-c4ccccc4)cc3n2)o1	99
O=C(Nc1nc(-c2ccccc2)c(-c2ncon2)s1)c1ccccc1	330
CCn1c(=O)c2[nH]c(-c3ccc(OCC(=O)Nc4ccc(C#N)cc4)cc3)cc2n(CC)c1=O	120
CCCn1c(=O)n(C)c(=O)c2[nH]c(-c3ccc(OCC(=O)N4CCN(c5cccc(Cl)c5)CC4)cc3)cc21	479
O=C(Nc1cc(-c2ccc3c(c2)OCO3)nc(-c2ccccc2)n1)C1CC1	69.2
Nc1nc(-c2ccccc2F)c2ccccc2n1	456
CC(Oc1ccc(-c2cc3c([nH]2)c(=O)n(C)c(=O)n3C)cc1)C(=O)N1CCN(c2ccccc2)CC1 (stereo not given)	355
CCn1c(=O)c2[nH]c(-c3ccc(OCC(=O)Nc4ccc(O)cc4)cc3)nc2n(CCCOC)c1=O	417
Nc1nc(NC2CCCCC2)nc2nc(-c3ccco3)nn12	3.56
Cc1nc2c(N)nc(NCc3cccs3)nc2s1	313

(A) CCCn1c(=O)n(C)c(=O)c2[nH]c(-c3ccc(OCC(=O)N4CCN(c5nc6ccc(Cl)cc6s5)CC4)cc3)cc21
(B) Cc1ccc(Nc2nc(N)nc(CN3C(=O)NC4(CCCCC4)C3=O)n2)cc1
(C) CCn1cc2c(nc(NC(=O)Cc3cccs3)n3nc(-c4ccco4)nc23)n1
(D) CCC(CC)C(=O)Nc1nc(-c2ccccc2)c(C#N)c(-c2ccccc2)n1
(E) Nc1nc(C(=O)NCc2cccc3cc(C(=O)N4CCN(c5ccccn5)CC4)cnc23)c2cccc(F)c2n1
In: Provide the items ranked by increasing Ki. Lab note: final answer is the ordered label list.
Out: E, C, D, A, B
(E: 2.7 nM, C: 15.9 nM, D: 54.5 nM, A: 631 nM, B: 2800 nM)

###

Literature-derived Ki for Adenosine receptor A2a (Homo sapiens, UniProt P29274) follows.
measuredQuantity: Ki (nM)

Here's what some known entries look like.
smilesData	Ki [nM]
CCOC(=O)c1nc(NC(=O)c2ccc(C)cc2)nc2nn(CCc3ccccc3)cc12	6000
O=C(CC1CCCC1)Nc1ccc(C(=O)Nc2nccs2)cc1	67

(a) N#Cc1c(-c2ccccc2)nc(NC(=O)c2ccc(Cl)cc2)nc1-c1ccccc1
(b) COc1ccc(CC(=O)Nc2cc(-n3nc(C)cc3C)nc(-c3ccc(C)o3)n2)cc1
(c) CC(C)(C)CC(=O)Nc1ccc(C(=O)Nc2nccs2)nc1
(d) Cn1cc2c(nc(NC(c3ccccc3)c3ccccc3)n3nc(-c4ccco4)nc23)n1
(e) CCn1c(=O)c2[nH]c(-c3ccc(-c4ccccc4)cc3)nc2n(CCCOC)c1=O
In: // sort entries: Ki, high to low Lab note: final answer is the ordered label list.
Out: d, e, c, a, b
